Target: Leucine aminopeptidase (Plasmodium falciparum (isolate 3D7)) (UniProt Q8IL11)
Sequence (Q8IL11 whole entry, looked up): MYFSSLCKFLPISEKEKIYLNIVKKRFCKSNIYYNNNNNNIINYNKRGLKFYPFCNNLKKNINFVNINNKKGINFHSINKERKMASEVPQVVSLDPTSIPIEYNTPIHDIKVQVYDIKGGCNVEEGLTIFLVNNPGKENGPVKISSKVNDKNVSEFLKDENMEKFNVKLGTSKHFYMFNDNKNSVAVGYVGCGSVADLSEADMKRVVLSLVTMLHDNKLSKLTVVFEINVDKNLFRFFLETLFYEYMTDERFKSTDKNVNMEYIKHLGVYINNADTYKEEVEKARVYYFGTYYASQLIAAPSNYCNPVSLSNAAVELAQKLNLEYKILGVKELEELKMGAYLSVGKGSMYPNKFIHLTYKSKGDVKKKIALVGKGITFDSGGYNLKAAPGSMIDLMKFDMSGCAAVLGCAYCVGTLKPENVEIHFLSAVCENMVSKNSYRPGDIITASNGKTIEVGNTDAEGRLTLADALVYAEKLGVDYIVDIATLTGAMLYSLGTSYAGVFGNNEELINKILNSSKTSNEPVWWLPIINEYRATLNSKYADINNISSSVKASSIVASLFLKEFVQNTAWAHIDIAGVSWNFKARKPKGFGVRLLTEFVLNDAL
Assay: inhibition of purified malaria M17 aminopeptidase – biochemical, fluorescence, recombinant enzyme, powder samples, late-stage follow-up (AID 492977)
Conditions: recombinant PfM17LAP, H-Leu-NHMec fluorogenic substrate; at 5 µM
Calls of active or inactive are those of the source.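 How the source made its calls: active means inhibition of the parasite aminopeptidase above 50%; inactive means the rest.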
Hello, when you answer, please use one of the following outcomes: True = active, False = inactive

Below, 5 compounds whose answers are already recorded.
-- ask Dear all, I need the recorded test outcome for "CCOc1cccc(-c2cc(=O)[nH][nH]2)c1" , thank you.
-- reply True

-- ask Dear all, I need the recorded test outcome for Cc1ccc(-c2c(C)sc(NC(=O)[C@@H]3C4CCC(O4)[C@@H]3C(=O)O)c2C(=O)OC(C)C)cc1 (stereo partly specified) , thank you.
-- reply False

-- ask Dear all, I need the recorded test outcome for CCOC(=O)c1c(NC(=O)[C@@H]2C3C=CC(C3)[C@@H]2C(=O)O)sc2c1CCC(CC)C2 (stereo partly specified) , thank you.
-- reply False

-- ask Dear all, I need the recorded test outcome for "Cc1ccc(-n2c(C)cc(C(=O)COC(=O)c3ccc[nH]c3=O)c2C)cc1" , thank you.
-- reply False

-- ask Dear all, I need the recorded test outcome for "Cc1ccc(Nc2nnc(SCc3cc(=O)n4ccsc4n3)s2)c(C)c1" , thank you.
-- reply False

***
-- ask Dear all, I need the recorded test outcome for "COc1cc(NC(=O)CSc2nnc3c(C)cc4cc(C)cc(C)c4n23)c(C(=O)O)cc1OC" , thank you.
-- reply True

-- ask Dear all, I need the recorded test outcome for CCOC(=O)c1c(NC(=O)[C@@H]2C3CCC(O3)[C@@H]2C(=O)O)sc(C)c1-c1ccc(C)cc1 (stereo partly specified) , thank you.
-- reply False

-- ask Dear all, I need the recorded test outcome for CCc1ccc(Nc2nnc(SC3CCOC3=O)s2)cc1 (stereo unspecified) , thank you.
-- reply False

-- ask Dear all, I need the recorded test outcome for "CCOc1ccc(NC(=O)Nc2ccc3nccnc3c2)cc1" , thank you.
-- reply False

-- ask Dear all, I need the recorded test outcome for "CCOC(=O)c1c(-c2ccc(C)cc2)csc1NC(=O)[C@H]1CC=CC[C@H]1C(=O)O" , thank you.
-- reply False

-- ask Dear all, I need the recorded test outcome for "COC(=O)c1c(NC(=O)[C@H]2CCCC[C@H]2C(=O)O)sc2c1CCCCC2" , thank you.
-- reply True

-- ask Dear all, I need the recorded test outcome for "CCc1cc2ccc(C)cc2nc1SCC(=O)Nc1cc(OC)c(OC)cc1C(=O)O" , thank you.
-- reply True

-- ask Dear all, I need the recorded test outcome for "COc1ccc(C(C)(C)C)cc1NC(=O)[C@H]1CC=CC[C@H]1C(=O)O" , thank you.
-- reply False

-- ask Dear all, I need the recorded test outcome for "Cc1cc(C(=O)COC(=O)c2ccc[nH]c2=O)c(C)n1-c1ccccc1" , thank you.
-- reply False

-- ask Dear all, I need the recorded test outcome for "Cc1cc(C(=O)COC(=O)c2ccc[nH]c2=O)c(C)n1-c1ccc(F)cc1" , thank you.
-- reply False

-- ask Dear all, I need the recorded test outcome for "CCN(CC)c1ccc(NC(=O)CSc2nc(C)cc(=O)[nH]2)cc1" , thank you.
-- reply False

-- ask Dear all, I need the recorded test outcome for "CC(C)c1ccc(NC(=O)[C@H]2CCCC[C@H]2C(=O)O)cc1" , thank you.
-- reply False
